Experiment: CHI Log D procedure
Format: physicochemical
Assay Conditions: pH 7.4, CHI Log D
Measure: chromatographic logD
Numbers only.

{"columns": ["Compound", "chromatographic logD"],
 "data": [
  ["CC(=O)N1CCC[C@]12CC=CCCCC1(CCCC=CCCCCCC[C@@](C)(C(=O)N[C@@H](Cc3ccccc3)C(=O)N[C@@H](Cc3c[nH]c4ccccc34)C(=O)N[C@@H](CCC(N)=O)C(N)=O)NC(=O)[C@H](C(C)C)NC(=O)[C@H](Cc3ccccc3)NC(=O)[C@H](C)NC(=O)[C@H](C)NC(=O)[C@H](Cc3ccncc3)NC(=O)[C@H](CC(=O)O)NC1=O)NC(=O)[C@H](C)NC(=O)[C@H](CC(=O)O)NC2=O (stereo partly drawn)", 2.46],
  ["CC(=O)N1CCC[C@]12CC=CCCCC1(CCCC=CCCCCCC[C@@](C)(C(=O)N[C@@H](Cc3ccccc3)C(=O)N[C@@H](Cc3csc4ccccc34)C(=O)N[C@@H](CCC(N)=O)C(=O)N[C@H](C)C(N)=O)NC(=O)[C@H](CC(N)=O)NC(=O)[C@H](Cc3ccccc3)NC(=O)[C@H](C)NC(=O)[C@H](C)NC(=O)[C@H](CCC(=O)O)NC(=O)[C@H](CC(=O)O)NC1=O)NC(=O)[C@H](CC(C)C)NC(=O)[C@H](CC(=O)O)NC2=O (stereo partly drawn)", 2.33]
]}

Attention now turns to another entry.
Q: Name the recorded chromatographic logD for CC(=O)N1CCC[C@]12CC=CCCCC1(CCCC=CCCCCCC[C@@](C)(C(=O)N[C@@H](Cc3ccccc3)C(=O)N[C@@H](Cc3c[nH]c4ccccc34)C(=O)N[C@@H](CCC(N)=O)C(N)=O)NC(=O)[C@H](C(C)C)NC(=O)[C@H](Cc3ccc(F)c(F)c3)NC(=O)[C@H](C)NC(=O)[C@H](C)NC(=O)[C@H](CC(=O)O)NC(=O)[C@H](CC(=O)O)NC1=O)NC(=O)[C@H](C)NC(=O)[C@H](CC(=O)O)NC2=O (stereo partly drawn) .
Ans: 2.05

* * *

I'd appreciate it if you could supply pIC50 values for the items below.
Target Or System: full-length beta-Catenin (Uniprot ID P35222) (Homo sapiens, UniProt P35222)
Construct: 10 nM full-length beta-Catenin (Uniprot ID P35222)
Sequence (P35222 whole entry): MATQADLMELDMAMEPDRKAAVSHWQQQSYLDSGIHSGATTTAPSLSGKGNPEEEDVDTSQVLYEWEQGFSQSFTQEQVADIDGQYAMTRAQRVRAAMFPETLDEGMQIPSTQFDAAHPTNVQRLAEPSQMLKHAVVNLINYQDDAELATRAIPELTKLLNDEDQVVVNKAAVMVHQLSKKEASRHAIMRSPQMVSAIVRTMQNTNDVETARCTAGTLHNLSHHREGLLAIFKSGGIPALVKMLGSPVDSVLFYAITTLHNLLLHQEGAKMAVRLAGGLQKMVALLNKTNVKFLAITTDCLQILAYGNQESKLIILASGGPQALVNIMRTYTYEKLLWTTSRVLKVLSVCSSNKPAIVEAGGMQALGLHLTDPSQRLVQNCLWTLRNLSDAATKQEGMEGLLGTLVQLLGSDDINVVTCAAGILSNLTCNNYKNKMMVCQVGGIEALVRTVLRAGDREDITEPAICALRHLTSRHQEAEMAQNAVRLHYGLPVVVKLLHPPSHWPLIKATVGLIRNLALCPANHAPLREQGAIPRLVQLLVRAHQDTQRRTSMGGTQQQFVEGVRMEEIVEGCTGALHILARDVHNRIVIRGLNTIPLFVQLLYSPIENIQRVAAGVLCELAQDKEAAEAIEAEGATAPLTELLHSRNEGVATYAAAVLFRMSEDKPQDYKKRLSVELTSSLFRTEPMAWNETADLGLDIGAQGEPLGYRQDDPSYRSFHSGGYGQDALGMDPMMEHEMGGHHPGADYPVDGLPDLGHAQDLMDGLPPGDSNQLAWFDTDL
Experiment: Fluorescence polarization IC50 (beta-catenin / 5FAM-TCF4 10-53 competition)
Format: binding
Assay Conditions: fluorescence polarization; read-out: beta-Catenin FP IC50
One number for each entry, as −log10 of the molar value.

Check out these entries, answers already filled in.
{"columns": ["Compound", "pIC50"],
 "data": [
  ["CC(=O)N1CCC[C@]12CC=CCCCC1(CCCC=CCCCOC(=O)N3CC[C@@](C(=O)N[C@@H](Cc4ccsc4)C(=O)N[C@@H](Cc4csc5ccccc45)C(=O)N[C@@H](CCC(N)=O)C(N)=O)(C3)NC(=O)[C@H](CC(N)=O)NC(=O)[C@H](Cc3ccccc3)NC(=O)[C@H](C)NC(=O)[C@H](C)NC(=O)[C@H](CCCNC(=N)N)NC(=O)[C@H](CC(=O)O)NC1=O)NC(=O)[C@H](CC(C)(C)C)NC(=O)[C@H](CC(=O)O)NC2=O (stereo partly drawn) [I-1890]", 7.51],
  ["CC(=O)N1CCC[C@]12CC=CCCCC1(CCCC=CCCCOC(=O)N3CC[C@@](C(=O)N[C@@H](Cc4ccsc4)C(=O)N[C@@H](Cc4csc5ccccc45)C(=O)N[C@@H](CCC(N)=O)C(N)=O)(C3)NC(=O)[C@H](CC(C)C)NC(=O)[C@H](Cc3ccccc3)NC(=O)[C@H](C)NC(=O)[C@H](C)NC(=O)[C@H](CN(CC(=O)O)CC(F)(F)F)NC(=O)[C@H](CC(=O)O)NC1=O)NC(=O)[C@H](CC1CCCCC1)NC(=O)[C@H](CC(=O)O)NC2=O (stereo partly drawn)", 7.82]
]}

Attention now turns to another entry.
Q: Name the recorded pIC50 for CC(=O)N1CCC[C@]12CC=CCCCC1(CCCC=CCCCOC(=O)N3CC[C@@](C(=O)N[C@@H](Cc4ccsc4)C(=O)N[C@@H](Cc4csc5ccccc45)C(=O)N[C@@H](CCC(N)=O)C(N)=O)(C3)NC(=O)[C@H](CC(C)C)NC(=O)[C@H](Cc3ccccc3)NC(=O)[C@H](C)NC(=O)[C@H](C)NC(=O)[C@H](CN(CC(=O)O)C(=O)C(F)(F)F)NC(=O)[C@H](CC(=O)O)NC1=O)NC(=O)[C@H](CC(C)(C)C)NC(=O)[C@H](CC(=O)O)NC2=O (stereo partly drawn) .
Ans: 7.42

These data points were gathered from patent US20240116985A1.
